B1: SLC6A17 (parent)
chain: HMFTPKLDKMLDPQVWREAATQVF

# Variants of: B1
# assay: protein stability index of a GFP-peptide fusion (GPS, HEK-293T) (PSI 1-6); higher = more stable;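 further: lentivirally expressed fusions sorted by FACS into six bins by GFP to DsRed ratio, PSI derived from sequencing read proportions per bin multiplied by bin number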
# condition summary: c terminus: a fixed tail appended
Reported protein stability index values are given for each entry in this list.
recorded endpoint: protein stability index

{"columns": ["residue change", "recorded endpoint", "meas value"],
 "data": [
  ["A20S", "protein stability index", 2.03],
  ["K6Q", "protein stability index", 1.51],
  ["V15I", "protein stability index", 1.35],
  ["K9D", "protein stability index", 2.63],
  ["F24V", "protein stability index", 2.69],
  ["F24N", "protein stability index", 2.67],
  ["V23R", "protein stability index", 3.06],
  ["Q14F", "protein stability index", 2.13],
  ["F3K", "protein stability index", 1.98],
  ["D12P", "protein stability index", 1.91],
  ["D12V", "protein stability index", 1.32],
  ["Q22S", "protein stability index", 1.9],
  ["A19Y", "protein stability index", 2.12],
  ["M2D", "protein stability index", 2.34],
  ["V15P", "protein stability index", 2.81],
  ["F24C", "protein stability index", 1.97],
  ["A19K", "protein stability index", 1.79],
  ["D8P", "protein stability index", 3.01],
  ["A19V", "protein stability index", 2.15],
  ["P13S", "protein stability index", 1.93],
  ["A19P", "protein stability index", 2.24],
  ["R17E", "protein stability index", 2.3],
  ["K6S", "protein stability index", 1.89],
  ["M2K", "protein stability index", 2.13],
  ["L11F", "protein stability index", 2.33],
  ["D12N", "protein stability index", 1.34],
  ["Q22M", "protein stability index", 3.21],
  ["Q22H", "protein stability index", 1.64],
  ["M2A", "protein stability index", 1.9],
  ["K6M", "protein stability index", 1.62],
  ["K9S", "protein stability index", 1.53],
  ["T21N", "protein stability index", 2.21]
]}
